Biological target: T1, human GLP-1 receptor (human, UniProt P43220 24-463)
T1 construct: whole, on cells; Used as purified membranes of the transfected hamster cells, not whole cells; also called hGLP-1
Experiment: SPA, displacement of 125I-GLP-1(7-36)NH2, 0.005% HSA
*1 amine or outer side, *2 acyl side, *3 side chain or, on linkers, in order; H or OH if unused. Where no end group is shown, it is not given here. Side-chain parts run from the residue outwards. [ ]: non-standard residue; d: D form. The star is where a group is joined. Decanoyl(10-(4-HOOC-PhO)) = O=C(O)c1ccc(OCCCCCCCCCC(=O)*)cc1; γGlu = O=C(O)[C@H](CCC(=O)[*:2])N[*:1]; 13‑carboxytridecanoyl = C14 diacid; AEEA = NCCOCCOCC(=O)O; Aib = CC(C)(N)C(=O)O
List of IC50 values.

Complete the entry with IC50 for H[Aib]EGTFTSDVSK([AEEA-AEEA-γGlu-Decanoyl(10-(4-HOOC-PhO))])YLEEQAVREFIAK([AEEA-AEEA-γGlu-Decanoyl(10-(4-HOOC-PhO))])LVG [GLP-1 derivative of Example 19: [Aib8,Lys18,Glu22,Val25,Arg26,Lys31,Gly34]-GLP-1-(7-34)-peptide] < 1000 nM

State its IC50 for this binder: H[Aib]EGTFTSDVSK([AEEA-AEEA-γGlu-13‑carboxytridecanoyl])YLEGQAAK([AEEA-AEEA-γGlu-13‑carboxytridecanoyl])EFIAWLVQGRG [GLP-1 derivative of Example 141: [Aib8,Lys18,Gln34]-GLP-1-(7-37)-peptide] < 1000 nM
